- System: Escherichia coli TOP10;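 further: peptides expressed intracellularly from a pBAD plasmid library in pooled LB shake-flask culture, induced with 0.3% L-arabinose, DNA abundance read by NGS, three biological replicates, DESeq2 with apeglm shrinkage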
- procedure-summary: shrunken log2 fold change of peptide-encoding DNA abundance (4.5 h post-induction vs induction); higher = less antimicrobial activity (less host growth inhibition)
- test-context: time post-induction: 4.5 h; library: site-saturation at positions 5, 18, 19, 20
Please mark Criterion met if the recorded shrunken log2 fold change is equal to or greater than -0.1, and Criterion not met if it falls below.

RRIRLRPPRLPRPRPRPCIYPRP: Criterion not met
RRIRERPPRLPRPRPRPARKPRP: Criterion met
RRIRHRPPRLPRPRPRPEGIPRP: Criterion met
RRIRDRPPRLPRPRPRPTTPPRP: Criterion met
RRIRIRPPRLPRPRPRPQAWPRP: Criterion met

Entry RRIRVRPPRLPRPRPRPEDWPRP : is its shrunken log2 fold change no less than -0.1? Criterion met

Entry RRIRERPPRLPRPRPRPQVNPRP : is its shrunken log2 fold change no less than -0.1? Criterion not met

Entry RRIRERPPRLPRPRPRPINEPRP : is its shrunken log2 fold change no less than -0.1? Criterion not met

Entry RRIRLRPPRLPRPRPRPGNMPRP : is its shrunken log2 fold change no less than -0.1? Criterion not met

Entry RRIRDRPPRLPRPRPRPVNRPRP : is its shrunken log2 fold change no less than -0.1? Criterion not met
